Kindly state Ki for each of the entries shown.
- EXPERIMENTAL_SYSTEM: Cannabinoid receptor 2 (Homo sapiens)
- EXPERIMENT: Displacement of [3H]CP55940 from recombinant human CB2R expressed in HEK293 cell membranes measured after 90 mins
Please reply with the bare figure in nM and do not write the unit itself.

## Input Lab note: need Ki with Cannabinoid receptor 2 (Homo sapiens) for entry COC(=O)c1nn(C)cc1NC(=O)C12CC3CC(CC(C3)C1)C2 , please look it up.
## Output 845

## Input Another compound to check: COC(=O)c1cc(C)sc1NC(=O)C12CC3CC(CC(C3)C1)C2
## Output 23.1

## Input Moving on to the next compound: COC(=O)c1c(NC(=O)Oc2ccccc2)sc2c1CCCC2
## Output 244

## Input Repeat for the following compound: COC(=O)c1c(NC(=O)C23CC4CC(CC(C4)C2)C3)sc2c1CCSC2
## Output 50.7

## Input Now consider CCc1c(C)sc(NC(=O)c2ccc(Cl)cc2)c1C(=O)OC and answer again.
## Output 621

## Input Please give the result for CCc1sc(NC(=O)C23CC4CC(CC(C4)C2)C3)c(C(=O)OC)c1C too.
## Output 5.92

## Input Can you handle COC(=O)c1cccnc1NC(=O)C12CC3CC(CC(C3)C1)C2 next?
## Output 1220

## Input Please do the same for CCCCCc1sc(NC(=O)C23CC4CC(CC(C4)C2)C3)c(C(=O)OC)c1-c1ccccc1 as well.
## Output 8.03

## Input How about CCCCc1sc(NC(=O)C23CC4CC(CC(C4)C2)C3)c(C(=O)OC)c1C ?
## Output 1.72

## Input Lookup COC(=O)c1c(NC(=O)N2CCOCC2)sc2c1CCCC2
## Output 2490

## Input Also COC(=O)c1c(-c2ccccc2)csc1NC(=O)C12CC3CC(CC(C3)C1)C2 ?
## Output 35

###

- EXPERIMENTAL_SYSTEM: UniProtKB P21554
- EXPERIMENT: Displacement of [3H]CP55940 from recombinant human CB1R expressed in HEK293 cell membranes measured after 90 mins
READOUT: Ki

## Input Could you tell me which Ki is on file for COC(=O)c1c(NC(=O)N2CCCCC2)sc2c1CCCC2 ?
## Output > 10 µM

## Input Note, next up: COC(=O)c1ccsc1NC(=O)C12CC3CC(CC(C3)C1)C2
## Output > 10 µM

## Input Continue with COC(=O)c1cc(C)sc1NC(=O)C12CC3CC(CC(C3)C1)C2
## Output > 10 µM

## Input Same for CCCCc1sc(NC(=O)C23CC4CC(CC(C4)C2)C3)c(C(=O)OC)c1C
## Output 0.0589 µM

## Input Moving on to the next compound: COC(=O)c1c(NC(=O)C23CC4CC(CC(C4)C2)C3)sc2c1CCCC2
## Output > 10 µM

## Input Request: CCCc1cc(C(=O)OC)c(NC(=O)C23CC4CC(CC(C4)C2)C3)s1
## Output 1.34 µM

## Input // query: COC(=O)c1[nH]ccc1NC(=O)C12CC3CC(CC(C3)C1)C2
## Output > 10 µM

## Input Note, next up: CCCCCc1sc(NC(=O)C23CC4CC(CC(C4)C2)C3)c(C(=O)OC)c1-c1ccccc1
## Output 0.519 µM

## Input Let us now turn to COC(=O)c1c(NC(=O)N2CCOCC2)sc2c1CCCC2
## Output > 10 µM

## Input How about CCc1c(C)sc(NC(=O)c2ccc(F)cc2)c1C(=O)OC ?
## Output > 10 µM

## Input Next: CCc1c(C)sc(NC(=O)c2ccc(Cl)cc2)c1C(=O)OC
## Output > 10 µM

## Input Try COC(=O)c1c(NC(=O)C23CC4CC(CC(C4)C2)C3)sc(C)c1C next.
## Output > 10 µM

## Input And for COC(=O)c1cc(-c2ccccc2)sc1NC(=O)C12CC3CC(CC(C3)C1)C2 ?
## Output > 10 µM

## Input Now consider COC(=O)c1c(NC(=O)C23CC4CC(CC(C4)C2)C3)sc2c1CCSC2 and answer again.
## Output > 10 µM

## Input Also COC(=O)c1nn(C)cc1NC(=O)C12CC3CC(CC(C3)C1)C2 , if possible.
## Output > 10 µM

## Input Now this one: COC(=O)c1cccnc1NC(=O)C12CC3CC(CC(C3)C1)C2
## Output > 10 µM

## Input Same question for CCc1c(C)sc(NC(=O)C23CC4CC(CC(C4)C2)C3)c1C(=O)OC please.
## Output 0.185 µM

## Input Input COC(=O)c1c(NC(=O)NC23CC4CC(CC(C4)C2)C3)sc2c1CCCC2
## Output > 10 µM

## Input Further, for COC(=O)c1c(C)noc1NC(=O)C12CC3CC(CC(C3)C1)C2 ?
## Output > 10 µM

## Input What would you report for COC(=O)c1c(NC(=O)C23CC4CC(CC(C4)C2)C3)cnn1C ?
## Output > 10 µM

## Input Request: COC(=O)c1c(-c2ccccc2)csc1NC(=O)C12CC3CC(CC(C3)C1)C2
## Output > 10 µM

## Input Next entry: COC(=O)c1c(NC(=O)Oc2ccccc2)sc2c1CCCC2
## Output > 10 µM

## Input // next record COC(=O)c1c(NC(=O)C23CC4CC(CC(C4)C2)C3)sc2c1CCS(=O)(=O)C2
## Output > 10 µM

## Input Then CCc1sc(NC(=O)C23CC4CC(CC(C4)C2)C3)c(C(=O)OC)c1C ?
## Output 2.12 µM

###

- EXPERIMENTAL_SYSTEM: Cannabinoid receptor 1 (CB1R) (Homo sapiens, UniProt P21554)
- Sequence (P21554 whole entry): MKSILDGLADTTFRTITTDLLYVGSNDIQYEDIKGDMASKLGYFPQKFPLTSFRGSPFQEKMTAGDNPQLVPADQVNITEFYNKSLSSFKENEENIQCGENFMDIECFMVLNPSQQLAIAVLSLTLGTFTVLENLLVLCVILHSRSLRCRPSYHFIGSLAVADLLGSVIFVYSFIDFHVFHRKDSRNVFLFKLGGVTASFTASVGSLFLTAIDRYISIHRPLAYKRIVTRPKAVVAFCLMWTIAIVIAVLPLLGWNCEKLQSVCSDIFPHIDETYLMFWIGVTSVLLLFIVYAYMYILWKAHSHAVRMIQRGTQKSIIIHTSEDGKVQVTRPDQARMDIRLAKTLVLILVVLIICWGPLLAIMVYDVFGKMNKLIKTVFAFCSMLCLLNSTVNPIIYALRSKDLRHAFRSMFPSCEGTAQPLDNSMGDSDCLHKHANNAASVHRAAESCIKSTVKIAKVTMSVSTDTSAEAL
- EXPERIMENT: Displacement of [3H]CP55940 from recombinant human CB1R expressed in HEK293 cell membranes at 10 uM measured after 90 mins relative to control
- EXPERIMENTAL_SETUP: membranes of HEK293 cells expressing recombinant human CB1R, probe [3H]CP55940
Provide the recorded inhibition at 1.5 h, 10 µM for the entries that follow.

## Input Query inhibition at 1.5 h, 10 µM on Cannabinoid receptor 1 (CB1R) (Homo sapiens, UniProt P21554) for COC(=O)c1c(NC(=O)C23CC4CC(CC(C4)C2)C3)sc2c1CCS(=O)(=O)C2
## Output < 50%

## Input Next: COC(=O)c1[nH]ccc1NC(=O)C12CC3CC(CC(C3)C1)C2
## Output < 50%

## Input Consider next the compound COC(=O)c1cc(-c2ccccc2)sc1NC(=O)C12CC3CC(CC(C3)C1)C2 in the same way.
## Output < 50%

## Input Please do the same for COC(=O)c1ccsc1NC(=O)C12CC3CC(CC(C3)C1)C2 as well.
## Output < 50%

## Input COC(=O)c1c(NC(=O)C23CC4CC(CC(C4)C2)C3)sc(C)c1C , same question.
## Output < 50%

## Input Do the same for CCCc1cc(C(=O)OC)c(NC(=O)C23CC4CC(CC(C4)C2)C3)s1 please
## Output < 50%

## Input Param item: COC(=O)c1c(NC(=O)Oc2ccccc2)sc2c1CCCC2
## Output < 50%

## Input Lookup COC(=O)c1c(NC(=O)N2CCOCC2)sc2c1CCCC2
## Output < 50%

## Input // query: CCc1c(C)sc(NC(=O)c2ccc(Cl)cc2)c1C(=O)OC
## Output < 50%

## Input Next compound: Cc1ccc(Cn2nc(C(=O)N[C@@H]3C(C)(C)[C@@H]4CC[C@@]3(C)C4)cc2-c2ccc(Cl)c(C)c2)cc1
## Output < 50%

## Input Another: CCc1c(C)sc(NC(=O)C23CC4CC(CC(C4)C2)C3)c1C(=O)OC
## Output < 50%

## Input Next: COC(=O)c1c(NC(=O)N2CCCCC2)sc2c1CCCC2
## Output < 50%

###

- EXPERIMENTAL_SYSTEM: Cannabinoid receptor 2 (Homo sapiens, UniProt P34972)
- Sequence (P34972 whole entry): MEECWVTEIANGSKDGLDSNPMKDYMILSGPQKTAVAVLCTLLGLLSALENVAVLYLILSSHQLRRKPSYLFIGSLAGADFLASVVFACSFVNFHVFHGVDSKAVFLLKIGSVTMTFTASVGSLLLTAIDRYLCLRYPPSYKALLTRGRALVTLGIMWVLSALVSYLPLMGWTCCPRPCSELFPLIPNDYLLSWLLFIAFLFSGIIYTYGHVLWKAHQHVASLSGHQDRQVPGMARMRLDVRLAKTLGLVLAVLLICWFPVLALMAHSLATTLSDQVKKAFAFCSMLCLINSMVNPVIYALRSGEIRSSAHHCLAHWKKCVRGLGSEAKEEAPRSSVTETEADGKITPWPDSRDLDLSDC
- EXPERIMENT: Agonist activity at recombinant human CB2R expressed in CHOK1 cells assessed as inhibition of NKH477-stimulated intracellular cAMP levels after 30 mins by chemiluminescent assay
Please respond with reported EC50 for every item in the list.
Field note: include the unit after the figure.

## Input # get_value(readout= EC50, system= Cannabinoid receptor 2 (Homo sapiens, UniProt P34972)) for COC(=O)c1c(NC(=O)C23CC4CC(CC(C4)C2)C3)sc2c1CCCC2
## Output 1530 nM

## Input Repeat with CCc1sc(NC(=O)C23CC4CC(CC(C4)C2)C3)c(C(=O)OC)c1C
## Output 371 nM

## Input Please answer likewise for CCCCc1sc(NC(=O)C23CC4CC(CC(C4)C2)C3)c(C(=O)OC)c1C
## Output 1140 nM

## Input Would you mind doing CCc1c(C)sc(NC(=O)C23CC4CC(CC(C4)C2)C3)c1C(=O)OC as well?
## Output 197 nM

## Input Record: COC(=O)c1c(NC(=O)C23CC4CC(CC(C4)C2)C3)sc(C)c1C
## Output 318 nM
